Experimental Target: Gal4 DNA binding domain fused to the LBD of LXRα in HEK293 cells (Homo sapiens (Human), UniProt Q13133)
Sequence (Q13133 209-447): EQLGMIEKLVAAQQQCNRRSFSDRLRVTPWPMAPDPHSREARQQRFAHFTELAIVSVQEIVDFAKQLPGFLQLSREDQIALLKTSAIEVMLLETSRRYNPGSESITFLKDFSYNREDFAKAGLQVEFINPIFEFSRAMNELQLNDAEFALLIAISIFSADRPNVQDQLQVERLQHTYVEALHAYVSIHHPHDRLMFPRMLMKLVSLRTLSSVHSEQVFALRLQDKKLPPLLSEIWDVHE
Experiment Description: LXR luciferase transcriptional reporter gene assay, agonist mode, LXRα
Format: cell-based
For each record, write down the corresponding Cell LXRα efficacy.

The measured Cell LXRα efficacy associated with CC(C)(C)C1CN(c2ccc(F)c(S(C)(=O)=O)c2)CCN1c1nccc(C(F)(F)F)n1 (centres unmarked) [7-29] reads 150 (92) %

For CC[C@@H](O)c1cnc(N2CCN(c3ccc(F)c(S(C)(=O)=O)c3)C[C@H]2C(C)C)nc1C(F)(F)F (single isomer, unassigned) [Cpd No 12-7] the molecule record lists Cell LXRα efficacy as 862 (25) %

The molecule identified as C[C@](O)(c1ccc(CN2CCN(c3cccc(S(C)(=O)=O)c3)C[C@@H]2c2ccccc2)cc1)C(F)(F)F (single isomer, unassigned) [46-28] registered its Cell LXRα efficacy at 4974 (24) %

For reference, reported Cell LXRα efficacy for CS(=O)(=O)c1cccc(N2CCN(C[C@H]3CC[C@H](C(F)(F)F)CC3)[C@H](c3ccccc3)C2)c1 (single isomer, unassigned) [48-32] stands at 19000 (4) %

Reported Cell LXRα efficacy for CS(=O)(=O)c1cccc(N2CCN(C[C@H]3CC[C@@H](C(F)(F)F)CC3)[C@@H](c3ccc(F)cc3)C2)c1 [Cpd No 48-43] was 240 (54) %

Looking up CCOC(=O)c1cnc(N2CCN(c3ccc(COC(C)=O)c(S(C)(=O)=O)c3)C[C@H]2C(C)C)nc1C(F)(F)F [9-10] , I found its Cell LXRα efficacy recorded as 243 (59) %

Cell LXRα efficacy recorded for this molecule, CC(C)[C@H]1CN(c2cccc(S(C)(=O)=O)c2)CCN1C[C@H]1CC[C@H](C(F)(F)F)OC1 (single isomer, unassigned) [Cpd No 49-6] , is 442 (56) %

The recorded Cell LXRα efficacy for entry CC(C)[C@@H]1CN(c2ccc(F)c(S(C)(=O)=O)c2)CCN1C(=O)OC(C)C(F)(F)F (some centres unmarked) [5-3] equals 1595 (86) %

# molecule COC(=O)c1cnc(N2CCN(c3ccc(F)c(S(=O)(=O)N(C)Cc4ccc(OC)cc4)c3)C[C@H]2C(C)C)nc1C(F)(F)F [9-3] ; its Cell LXRα efficacy = 951 (50) %

Record CS(=O)(=O)c1cccc(N2CCN(C[C@H]3CC[C@]4(CC3)CC4(F)F)[C@@H](c3ccccc3)C2)c1 (single isomer, unassigned) [48-71] , field Cell LXRα efficacy: 236 (57) %

Cell LXRα efficacy for CC(C)[C@@H]1CN(c2ccc(C#N)c(S(C)(=O)=O)c2)CCN1C(=O)OC(C)(C)C [Cpd No 3-1] is 12810 (20) %

Form: molecule = CS(=O)(=O)c1cc(N2CCN(C[C@H]3CC[C@@H](C(F)(F)F)CC3)[C@H](c3ccccc3)C2)ccc1C#N (single isomer, unassigned) [50-5] ; Cell LXRα efficacy = 10000 (7) %

The molecule identified as CS(=O)(=O)c1cc(N2CCN(Cc3ccc(C(F)(F)F)nc3)C(c3ccccc3)C2)ccc1C(N)=O (centres unmarked) [46-58] registered its Cell LXRα efficacy at 6986 (8) %

// sample CC(C)[C@H]1CN(c2cccc(S(C)(=O)=O)c2)CCN1Cc1ccc(C(F)(F)F)nc1 [46-41] , its Cell LXRα efficacy was 2425 (60) %
